# EXPERIMENTAL SYSTEM: huCDH19(44-772) with Flag tag (construct A, Hu EC1-5) (human, UniProt Q9H159 44-772)
# ASSAY OVERVIEW: flow cytometry, transfected 293T cells
OBSERVATION TYPE: binding result

BINDER	OBSERVATION TYPE	RESULT
hu anti-<huCDH19> 4B10 (1-471)(R17G) VH::huIgG1z + 4B10 (1-236)(H45Q,A90T) VL::huKLC (Ab ID 14054) (antibody, V domains shown, Engineered variant of 4B10; the entries already carry the changes; Bin 4) VH: QVQLVESGGGVVQPGGSLRLSCAASGFTFSSYDMHWVRQAPGKGLEWVAVISYDGTNEYYADSVKGRFTISRDTSKNTLYLQMNSLRAEDTAVYYCARERYFDWSFDYWGQGTLVSVSS VL: EIVLTQSPGTLSLSPGERATLSCRASQSVSNTYLAWYQQRPGQAPRLLIYGASSRATGIPDRFSGSGSGTDFTLTISSLEPEDFAVYYCQQYSNSWTFGQGTKVEIKR	binding result	binds
hu anti-<huCDH19> 2G6 (1-477)(R17G,D61E,D72E,K94N) VH::huIgG1z + 2G6 (1-234)(C42S,D110E) VL::huLLC-C1 (Ab ID 14039) (antibody, V domains shown, Engineered variant of 2G6; the entries already carry the changes; Bin 4) VH: QVQLVESGGGVVQPGGSLRLSCAASGFTFSSYGMHWVRQAPGKGLEWVAFIWYEGSNKYYAESVKDRFTISRDNSKNTLYLQMNSLRAEDTAVYYCARRAGIIGTIGYYYGMDVWGQGTTVTVSS VL: SYELTQPPSVSVSPGQTASITCSGDRLGEKYTSWYQQRPGQSPLLVIYQDTKRPSGIPERFSGSNSGNTATLTISGTQAMDEADYYCQAWESSTVVFGGGTKLTVLG	binding result	binds
hu anti-<huCDH19> 4A9 (1-468)(F55I,A56G) VH::huIgG1z + 4A9 (1-239)(F47L) VL::huLLC-C1 (Ab ID 14057) (antibody, V domains shown, Engineered variant of 4A9; the entries already carry the changes; Bin 1) VH: QVQLQESGPGLVKPSETLSLTCTVSGGSISGYYWSWIRQPPGKGLEWIGYFSYSGSTNYNPSLKSRVTLSVDTSKNQFSLKLSSVTAADTAVYYCARNWAFHFDFWGQGTLVTVSS VL: QSVLTQPPSVSGAPGQRVTISCTGSSSNIGTGYAVHWYQQLPGTAPKLLIYGNNNRPSGVPDRFSGSKSGTSASLAITGLQAEDEADYYCQSYDSRLSGWVFGGGTKLTVLG	binding result	binds
